- System: ES1 (Ewing's Sarcoma)
- test: Bliss excess, mean over the matrix (fraction); higher = more synergy
The following compounds are shown together with reported Bliss excess values.

>  <compound>
CC1(C)CCC(CN2CCN(c3ccc(C(=O)NS(=O)(=O)c4ccc(NCC5CCOCC5)c([N+](=O)[O-])c4)c(Oc4cnc5[nH]ccc5c4)c3)CC2)=C(c2ccc(Cl)cc2)C1 [Venetoclax] + CCN(CCO)CCCOc1ccc2c(Nc3cc(CC(=O)Nc4cccc(F)c4)[nH]n3)ncnc2c1 [AZD2811] (first compound max 1 µM, 7x7, partner max 1 µM)

>  <reported property>
Bliss excess

>  <obs value>
0.0721

$$$$
>  <compound>
Cc1cc2ncnn2cc1Nc1ncc2c(n1)n(C1CCOCC1)c(=O)n2C [AZD7648] + C=CCn1c(=O)c2cnc(Nc3ccc(N4CCN(C)CC4)cc3)nc2n1-c1cccc(C(C)(C)O)n1 [AZD1775] (first compound max 10 µM, partner max 1 µM)

>  <reported property>
Bliss excess

>  <obs value>
0.0181

$$$$

Kindly consider the entry below.
## Task Return Bliss excess measured with ES1 (Ewing's Sarcoma) given this compound: Cc1c2c(nn1C)CSCc1cc(n(C)n1)CSc1cc(c3ccccc3c1)OCCCc1c(C(=O)O)n(C)c3c-2c(Cl)ccc13 [AZD5991] + C=CCn1c(=O)c2cnc(Nc3ccc(N4CCN(C)CC4)cc3)nc2n1-c1cccc(C(C)(C)O)n1 [AZD1775] (first compound max 1 µM, partner max 1 µM)
## Result -0.0524

* * *

The following compounds are shown together with reported combination Emax values.
- Tested on: CAMA-1 (Breast Carcinoma)
- test: combination Emax (second highest fraction inhibited in the dose matrix, 72 h); higher = more inhibition; extreme values may be limits of the assay

Consider the worked cases shown below.
>  <compound>
Cc1c2c(nn1C)CSCc1cc(n(C)n1)CSc1cc(c3ccccc3c1)OCCCc1c(C(=O)O)n(C)c3c-2c(Cl)ccc13 [AZD5991] + C1CN(CCC1(C(=O)N[C@@H](CCO)C2=CC=C(C=C2)Cl)N)C3=NC=NC4=C3C=CN4 [Capivasertib] (first compound max 1 µM, 7x7, partner max 3 µM)

>  <assayed target>
CAMA-1 (Breast Carcinoma)

>  <combination Emax>
0.994

$$$$
>  <compound>
CC(=O)c1c(C)c2cnc(Nc3ccc(N4CCNCC4)cn3)nc2n(C2CCCC2)c1=O [Palbociclib] + Cc1c2c(nn1C)CSCc1cc(n(C)n1)CSc1cc(c3ccccc3c1)OCCCc1c(C(=O)O)n(C)c3c-2c(Cl)ccc13 [AZD5991] (first compound max 10 µM, 7x7, partner max 1 µM)

>  <assayed target>
CAMA-1 (Breast Carcinoma)

>  <combination Emax>
0.408

$$$$
>  <compound>
Cc1c2c(nn1C)CSCc1cc(n(C)n1)CSc1cc(c3ccccc3c1)OCCCc1c(C(=O)O)n(C)c3c-2c(Cl)ccc13 [AZD5991] + CN(C)CCCOc1ccc(-c2ccc3ncc4c(c3c2)n(C2CCOCC2)c(=O)n4C)cn1 [AZD0156] (first compound max 1 µM, 7x7, partner max 1 µM)

>  <assayed target>
CAMA-1 (Breast Carcinoma)

>  <combination Emax>
0.555

$$$$
>  <compound>
CS(=O)(=O)CCNCc1ccc(-c2ccc3ncnc(Nc4ccc(OCc5cccc(F)c5)c(Cl)c4)c3c2)o1 [Lapatinib] + NC1(c2ccc(-c3nc4ccn5c(=O)[nH]nc5c4cc3-c3ccccc3)cc2)CCC1 [MK-2206] (first compound max 10 µM, 7x7, partner max 10 µM)

>  <assayed target>
CAMA-1 (Breast Carcinoma)

>  <combination Emax>
0.909

$$$$
>  <compound>
C[C@@H](Oc1cc(-c2cnn(C3CCNCC3)c2)cnc1N)c1c(Cl)ccc(F)c1Cl [Crizotinib] + Cn1cnc2c(F)c(Nc3ccc(Br)cc3Cl)c(C(=O)NOCCO)cc21 [Selumetinib] (first compound max 10 µM, 7x7, partner max 10 µM)

>  <assayed target>
CAMA-1 (Breast Carcinoma)

>  <combination Emax>
0.156

$$$$
>  <compound>
CN(C)CCCOc1ccc(-c2ccc3ncc4c(c3c2)n(C2CCOCC2)c(=O)n4C)cn1 [AZD0156] + C=CCn1c(=O)c2cnc(Nc3ccc(N4CCN(C)CC4)cc3)nc2n1-c1cccc(C(C)(C)O)n1 [AZD1775] (first compound max 1 µM, partner max 1 µM)

>  <assayed target>
CAMA-1 (Breast Carcinoma)

>  <combination Emax>
0.104

$$$$

Kindly consider the entry below.
## Task Could you share which combination Emax value was measured for CC1(C)CCC(CN2CCN(c3ccc(C(=O)NS(=O)(=O)c4ccc(NCC5CCOCC5)c([N+](=O)[O-])c4)c(Oc4cnc5[nH]ccc5c4)c3)CC2)=C(c2ccc(Cl)cc2)C1 [Venetoclax] + Cn1cnc2c(F)c(Nc3ccc(Br)cc3Cl)c(C(=O)NOCCO)cc21 [Selumetinib] (first compound max 1 µM, 7x7, partner max 3 µM) ?
## Result 0.0815

* * *

- System: SW1417 (Colorectal Carcinoma)
- test: Bliss excess, mean over the matrix (fraction); higher = more synergy
reported property: Bliss excess
// return just the number, without any unit appended

>  <compound>
C=CCn1c(=O)c2cnc(Nc3ccc(N4CCN(C)CC4)cc3)nc2n1-c1cccc(C(C)(C)O)n1 [AZD1775] + CCc1c2c(nc3ccc(O)cc13)-c1cc3c(c(=O)n1C2)COC(=O)[C@]3(O)CC [SN-38] (first compound max 1 µM, partner max 0.3 µM)

>  <assayed target>
SW1417 (Colorectal Carcinoma)

>  <obs value>
-0.0298

$$$$

Kindly consider the entry below.
## Task Could you share which Bliss excess value was measured for CC1(C)CCC(CN2CCN(c3ccc(C(=O)NS(=O)(=O)c4ccc(NCC5CCOCC5)c([N+](=O)[O-])c4)c(Oc4cnc5[nH]ccc5c4)c3)CC2)=C(c2ccc(Cl)cc2)C1 [Venetoclax] + C1CN(CCC1(C(=O)N[C@@H](CCO)C2=CC=C(C=C2)Cl)N)C3=NC=NC4=C3C=CN4 [Capivasertib] (first compound max 1 µM, 7x7, partner max 3 µM) ?
## Result -0.0744

* * *

- Test system: MFM-223 (Breast Carcinoma)
- test: Bliss excess, mean over the matrix (fraction); higher = more synergy
The following compounds are shown together with reported Bliss excess values.

>  <compound>
CC(=O)Nc1cccc(-n2c(=O)n(C3CC3)c(=O)c3c(Nc4ccc(I)cc4F)n(C)c(=O)c(C)c32)c1 [Trametinib] + Cc1nc(-c2cn3c(n2)-c2ccc(-c4cnn(C(C)(C)C(N)=O)c4)cc2OCC3)n(C(C)C)n1 [Taselisib] (first compound max 1 µM, 7x7, partner max 10 µM)

>  <assayed target>
MFM-223 (Breast Carcinoma)

>  <obs value>
-0.0174

$$$$
>  <compound>
NC1(C(=O)N[C@@H](CCO)c2ccc(Cl)cc2)CCN(c2ncnc3[nH]ccc23)CC1 [Capivasertib] + CCN(CCO)CCCOc1ccc2c(Nc3cc(CC(=O)Nc4cccc(F)c4)[nH]n3)ncnc2c1 [AZD2811] (first compound max 10 µM, 7x7, partner max 1 µM)

>  <assayed target>
MFM-223 (Breast Carcinoma)

>  <obs value>
-0.0072

$$$$
>  <compound>
Cc1cc2ncnn2cc1Nc1ncc2c(n1)n(C1CCOCC1)c(=O)n2C [AZD7648] + C=CCn1c(=O)c2cnc(Nc3ccc(N4CCN(C)CC4)cc3)nc2n1-c1cccc(C(C)(C)O)n1 [AZD1775] (first compound max 10 µM, partner max 1 µM)

>  <assayed target>
MFM-223 (Breast Carcinoma)

>  <obs value>
-0.0357

$$$$

Kindly consider the entry below.
## Task Return Bliss excess measured with MFM-223 (Breast Carcinoma) given this compound: C=CCn1c(=O)c2cnc(Nc3ccc(N4CCN(C)CC4)cc3)nc2n1-c1cccc(C(C)(C)O)n1 [AZD1775] + C1CN(CCC1(C(=O)N[C@@H](CCO)C2=CC=C(C=C2)Cl)N)C3=NC=NC4=C3C=CN4 [Capivasertib] (first compound max 3 µM, partner max 3 µM)
## Result -0.0369

* * *

- System: NCI-H2818 (Mesothelioma)
- test: combination Emax (second highest fraction inhibited in the dose matrix, 72 h); higher = more inhibition; extreme values may be limits of the assay
reported property: combination Emax
// return just the number, without any unit appended

## Task Could you share which combination Emax value was measured for COc1cccc(OCCCN)c1-c1cc(Nc2cnc(C#N)cn2)n[nH]1 [Prexasertib] + C=CCn1c(=O)c2cnc(Nc3ccc(N4CCN(C)CC4)cc3)nc2n1-c1cccc(C(C)(C)O)n1 [AZD1775] (first compound max 1 µM, partner max 1 µM) ?
## Result 0.359

## Task Could you share which combination Emax value was measured for COc1nnc2ccc(N3CCC(c4ccc(OCCN5CCN(C)C(=O)[C@H]5C)cc4)CC3)nn12 [AZD5153] + CC1(C)CCC(CN2CCN(c3ccc(C(=O)NS(=O)(=O)c4ccc(NCC5CCOCC5)c([N+](=O)[O-])c4)c(Oc4cnc5[nH]ccc5c4)c3)CC2)=C(c2ccc(Cl)cc2)C1 [Venetoclax] (first compound max 1 µM, 7x7, partner max 1 µM) ?
## Result 0.268
